System: T-Rex 293 cell line SC3 cells lacking increased expression of androgen receptor protein
ASSAY DETAILS: Cellular growth inhibition assay, T-Rex 293 SC3 cells without doxycycline (CellTiter-Glo, 72 hours)
Format: cell-based
REPORTED CONDITIONS: 72 h, T-Rex 293 cell line SC3 cells not exposed to doxycycline (lacking increased androgen receptor expression)
Parameter: GI50. Scope: all listed entries.

# COMPOUND, GI50
data = [
    ("Cc1sc2c(c1C)C(c1ccccc1CC1CC3(CCCN(c4ccc(C(=O)N[C@H]5CC[C@H](Oc6ccc(C#N)c(Cl)c6)CC5)nn4)C3)C1)=N[C@@H](C)c1nnc(C)n1-2 (stereo partly drawn)", "> 3000 nM"),
    ("Cc1sc2c(c1C)C(c1cccc(OCC3CCN(c4ccc(C(=O)N[C@H]5CC[C@H](Oc6ccc(C#N)c(Cl)c6)CC5)nn4)CC3)c1)=N[C@@H](C)c1nnc(C)n1-2", "> 3000 nM"),
    ("Cc1sc2c(c1C)C(c1ccc(N3CCC4CN(c5ccc(C(=O)N[C@H]6CC[C@H](Oc7ccc(C#N)c(Cl)c7)CC6)nn5)CCC4C3)cc1)=NC1(CC1)c1nnc(C)n1-2 (stereo partly drawn)", "< 500 nM"),
]
